study target: S1P1 (Homo sapiens)
Sequence (P21453 whole entry, species assumed): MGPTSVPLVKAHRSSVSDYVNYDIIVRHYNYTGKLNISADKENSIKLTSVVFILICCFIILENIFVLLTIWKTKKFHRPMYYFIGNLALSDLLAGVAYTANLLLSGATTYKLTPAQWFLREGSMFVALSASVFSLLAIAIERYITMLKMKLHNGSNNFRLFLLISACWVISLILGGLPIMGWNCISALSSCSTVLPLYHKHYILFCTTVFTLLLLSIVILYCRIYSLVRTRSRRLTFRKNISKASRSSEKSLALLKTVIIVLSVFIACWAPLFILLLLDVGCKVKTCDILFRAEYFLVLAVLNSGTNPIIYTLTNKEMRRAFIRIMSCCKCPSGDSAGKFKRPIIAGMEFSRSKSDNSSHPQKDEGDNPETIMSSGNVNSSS
procedure details: competitive S1Ps cell membrane binding assay against [32P]S1P, S1P1
test conditions: IC50 (nM) S1P1, Table 5
assay readout: IC50 (nM)

A selection of reference data follows.
INSERT INTO assay_data (compound, assay_readout, unit_abbreviation, meas_value) VALUES
  ('OCCOCc1ccc(-c2noc(-c3ccc(OCCF)c(C(F)(F)F)c3)n2)cc1F', 'IC50', 'nM', 17),
  ('Cc1ccccc1-c1ccc(-c2nc(-c3ccc(CN(C)CCC(=O)O)c(I)c3)no2)cc1C(F)(F)F', 'IC50', 'nM', 5.2),
  ('Cc1ccccc1-c1ccc(-c2nc(-c3ccc(CN(C)CCS(=O)(=O)O)c(F)c3)no2)cc1C(F)(F)F', 'IC50', 'nM', 2.3);

[P] Cc1ccccc1-c1ccc(-c2nc(-c3ccc(COCCCO)c(F)c3)no2)cc1C(F)(F)F
[Q] Cc1ccccc1-c1ccc(-c2nc(-c3ccc(CNO)c(F)c3)no2)cc1C(F)(F)F
[R] Cc1ccccc1-c1ccc(-c2nc(-c3ccc(CNCCC(=O)O)c(F)c3)no2)cc1C(F)(F)F
[S] OCCOCc1ccc(-c2noc(-c3ccc(OCCF)c(C(F)(F)F)c3)n2)cc1I
Highest IC50 first, then in falling order down to the smallest. Your task in answering is to list the labels in the requested order.
S, Q, P, R

[P] Cc1ccccc1-c1ccc(-c2nc(-c3ccc(CO)c(F)c3)no2)cc1C(F)F
[Q] OC(c1ccc(-c2noc(-c3ccc(OCCF)c(C(F)(F)F)c3)n2)cc1)C(F)(F)F (stereo not shown)
[R] Cc1ccccc1-c1ccc(-c2nc(-c3ccc(CCCCO)cc3)no2)cc1C(F)(F)F
[S] CN(CCC(=O)O)Cc1ccc(-c2noc(-c3ccc(OCc4cccnc4F)c(C(F)(F)F)c3)n2)cc1F
Could you please order the items by IC50, going from the lowest number to the highest? Your task in answering is to list the labels in the requested order.
P, R, Q, S

[1] CC(O)c1ccc(-c2noc(-c3ccc(OCCF)c(C(F)(F)F)c3)n2)cc1 (stereo not shown)
[2] Cc1ccccc1-c1ccc(-c2nc(-c3ccc(COCCO)c(I)c3)no2)cc1C(F)(F)F
[3] OCCn1ccc2ccc(-c3noc(-c4ccc(OCCF)c(C(F)(F)F)c4)n3)cc21
Could you please order the items by IC50, going from the lowest number to the highest? Your task in answering is to list the labels in the requested order.
1, 2, 3

[I] CN(CCCO)Cc1ccc(-c2noc(-c3ccc(OCCF)c(C(F)(F)F)c3)n2)cc1F
[II] FCCOc1ccc(-c2nc(-c3ccc4[nH]cnc4c3)no2)cc1C(F)(F)F
Pick one: I or II . Which has the bigger IC50 number? State your choice using its label.
II

[I] OCc1nc2cc(-c3noc(-c4ccc(OCCF)c(C(F)(F)F)c4)n3)ccc2[nH]1
[II] Cc1ccccc1-c1ccc(-c2nc(-c3ccc(CN(C)CCC(=O)O)c(Br)c3)no2)cc1C(F)(F)F
Record comparison, field IC50: mark the lower of I and II . State your choice using its label.
II

[1] Cc1ccccc1-c1ccc(-c2nc(-c3ccc(CO)cc3)no2)cc1C(F)(F)F
[2] Nc1cccc(-c2noc(-c3ccc(OCCF)c(C(F)(F)F)c3)n2)c1
[3] CNC(=O)CCN(C)Cc1ccc(-c2noc(-c3ccc(-c4ccccc4C)c(C(F)(F)F)c3)n2)cc1F
[4] OCc1ccc(-c2noc(-c3ccc(OCc4cccnc4F)c(C(F)(F)F)c3)n2)cc1
[5] CNCc1ccc(-c2noc(-c3ccc(OCCF)c(C(F)(F)F)c3)n2)cc1F
Could you please order the items by IC50, going from the lowest number to the highest? Your task in answering is to list the labels in the requested order.
3, 1, 5, 2, 4
(3: 3 nM, 1: 4.6 nM, 5: 13.4 nM, 2: 29 nM, 4: 239 nM)

[a] CN(CCC(=O)O)Cc1ccc(-c2noc(-c3ccc(OCc4cccc(F)n4)c(C(F)(F)F)c3)n2)cc1F
[b] CNc1cccc(-c2noc(-c3ccc(OCCF)c(C(F)(F)F)c3)n2)c1
Pick one: a or b . Which has the bigger IC50 number? State your choice using its label.
b

* * *

study target: S1P5 (Homo sapiens)
Sequence (Q9H228 whole entry, species assumed): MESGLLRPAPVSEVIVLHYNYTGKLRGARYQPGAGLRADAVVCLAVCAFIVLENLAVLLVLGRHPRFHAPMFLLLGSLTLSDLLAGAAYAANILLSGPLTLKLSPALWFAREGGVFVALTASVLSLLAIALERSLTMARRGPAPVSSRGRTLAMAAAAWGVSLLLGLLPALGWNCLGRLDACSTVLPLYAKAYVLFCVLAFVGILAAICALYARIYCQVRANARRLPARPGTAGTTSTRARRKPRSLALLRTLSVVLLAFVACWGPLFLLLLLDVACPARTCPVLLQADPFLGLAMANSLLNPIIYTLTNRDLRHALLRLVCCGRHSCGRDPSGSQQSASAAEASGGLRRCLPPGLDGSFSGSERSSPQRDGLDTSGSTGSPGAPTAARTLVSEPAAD
procedure details: competitive S1Ps cell membrane binding assay against [32P]S1P, S1P5
test conditions: Table 5; read-out: IC50 (nM) S1P5
assay readout: IC50 (nM)

A selection of reference data follows.
INSERT INTO results (smiles_entry, unit_abbreviation, meas_value) VALUES
  ('CN(CCC(=O)O)Cc1ccc(-c2noc(-c3ccc(OCc4cccnc4F)c(C(F)(F)F)c3)n2)cc1F', 'nM', 74.4),
  ('CN(CCCCO)Cc1ccc(-c2noc(-c3ccc(OCCF)c(C(F)(F)F)c3)n2)cc1F', 'nM', 721),
  ('OCc1ccc(-c2noc(-c3ccc(OCc4cccnc4F)c(C(F)(F)F)c3)n2)cc1', 'nM', 182),
  ('OCc1ccc(-c2noc(-c3ccc(OCc4cccc(F)n4)c(C(F)(F)F)c3)n2)cc1', 'nM', 934),
  ('CN(CCCO)Cc1ccc(-c2noc(-c3ccc(OCCF)c(C(F)(F)F)c3)n2)cc1', 'nM', 450),
  ('CN(CCC(=O)O)Cc1ccc(-c2noc(-c3ccc(OCc4cccc(F)n4)c(C(F)(F)F)c3)n2)cc1F', 'nM', 39.3);

[1] Cc1ccccc1-c1ccc(-c2nc(-c3ccc(CO)c(F)c3)no2)cc1C(F)F
[2] Cc1ccccc1-c1ccc(-c2nc(-c3cccc4[nH]ccc34)no2)cc1C(F)(F)F
Pick one: 1 or 2 . Which has the bigger IC50 number? State your choice using its label.
1
(1: 85.2 nM, 2: 28.4 nM)

[a] Cc1ccccc1-c1ccc(-c2nc(-c3ccc(CO)cc3)no2)cc1C(F)(F)F
[b] CN(CCO)Cc1ccc(-c2noc(-c3ccc(OCCF)c(C(F)(F)F)c3)n2)cc1F
[c] Cc1ccccc1-c1ccc(-c2nc(-c3ccc(CN(C)CCC(=O)O)c(Br)c3)no2)cc1C(F)(F)F
Highest IC50 first, then in falling order down to the smallest. Your task in answering is to list the labels in the requested order.
b, a, c

* * *

Measured IC50 values are reported for all entries that follow.
study target: S1P1 (Homo sapiens)
procedure details: competitive S1Ps cell membrane binding assay against [32P]S1P, S1P1
test conditions: IC50 (nM) S1P1, Table 5

INSERT INTO measurements (smiles_entry, study_target, assay_readout, meas_value) VALUES
  ('CN(C(=O)OC(C)(C)C)c1cccc(-c2noc(-c3ccc(OCCF)c(C(F)(F)F)c3)n2)c1', 'S1P1 (Homo sapiens)', 'IC50', '> 1000 nM'),
  ('OCc1ccc(-c2noc(-c3ccc(OCc4cccc(F)n4)c(C(F)(F)F)c3)n2)cc1', 'S1P1 (Homo sapiens)', 'IC50', '243 nM');

Output reported IC50 of the molecule CC(C)(C)OC(=O)Nc1cccc(-c2noc(-c3ccc(OCCF)c(C(F)(F)F)c3)n2)c1 on S1P1 (Homo sapiens).
> 1000 nM
